target-under-test: Trypanosoma cruzi glucokinase (TcGlcK) (Trypanosoma cruzi (strain CL Brener))
Sequence (Q4E4E1 1-376): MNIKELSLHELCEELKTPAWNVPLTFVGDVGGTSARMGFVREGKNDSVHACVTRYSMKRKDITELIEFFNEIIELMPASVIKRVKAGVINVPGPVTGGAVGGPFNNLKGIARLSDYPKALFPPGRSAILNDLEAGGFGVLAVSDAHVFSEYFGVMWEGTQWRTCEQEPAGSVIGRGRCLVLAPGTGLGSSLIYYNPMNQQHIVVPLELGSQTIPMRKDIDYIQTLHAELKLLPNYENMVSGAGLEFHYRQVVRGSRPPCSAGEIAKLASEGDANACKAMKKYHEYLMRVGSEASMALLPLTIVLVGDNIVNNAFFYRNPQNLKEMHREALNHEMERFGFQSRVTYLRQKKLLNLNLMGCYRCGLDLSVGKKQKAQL
Type: biochemical
condition-set: percentage of inhibition at 20 μM of the compound; N = 1
Here, each record is paired with measured TcGlcK Inh20 (%) data.
quantity-kind: TcGlcK Inh20 (%)

compound	target-under-test	result
O=C(N[C@@H]1C(O)O[C@H](CO)[C@@H](O)[C@@H]1O)c1ccc(CCl)cc1 (some centres unmarked)	Trypanosoma cruzi glucokinase (TcGlcK) (Trypanosoma cruzi (strain CL Brener))	33%
O=C(N[C@H]1C(O)O[C@H](CO)[C@H](O)[C@@H]1O)c1ccc(CCl)cc1 (some centres unmarked)	Trypanosoma cruzi glucokinase (TcGlcK) (Trypanosoma cruzi (strain CL Brener))	27%
O=C(N[C@@H]1C(O)O[C@H](CO)[C@@H](O)[C@@H]1O)c1cccc(Br)c1 (some centres unmarked)	Trypanosoma cruzi glucokinase (TcGlcK) (Trypanosoma cruzi (strain CL Brener))	35%
Cc1ccc(C(=O)N[C@H]2C(O)O[C@H](CO)[C@H](O)[C@@H]2O)o1 (some centres unmarked)	Trypanosoma cruzi glucokinase (TcGlcK) (Trypanosoma cruzi (strain CL Brener))	30%
O=C(N[C@@H]1C(O)O[C@H](CO)[C@@H](O)[C@@H]1O)c1ccoc1 (some centres unmarked)	Trypanosoma cruzi glucokinase (TcGlcK) (Trypanosoma cruzi (strain CL Brener))	58%
O=C(N[C@H]1C(O)O[C@H](CO)C(O)[C@@H]1O)c1ccoc1 (some centres unmarked)	Trypanosoma cruzi glucokinase (TcGlcK) (Trypanosoma cruzi (strain CL Brener))	51%
O=C(N[C@H]1C(O)O[C@H](CO)[C@@H](O)[C@@H]1O)c1cccc(Br)c1 (some centres unmarked)	Trypanosoma cruzi glucokinase (TcGlcK) (Trypanosoma cruzi (strain CL Brener))	57%
O=C(N[C@H]1C(O)O[C@H](CO)[C@@H](O)[C@@H]1O)c1ccc(CCl)cc1 (some centres unmarked)	Trypanosoma cruzi glucokinase (TcGlcK) (Trypanosoma cruzi (strain CL Brener))	42%
O=C(N[C@@H]1C(O)O[C@H](CO)[C@@H](O)[C@@H]1O)c1ccccc1 (some centres unmarked)	Trypanosoma cruzi glucokinase (TcGlcK) (Trypanosoma cruzi (strain CL Brener))	71%
O=C(N[C@H]1C(O)O[C@H](CO)[C@H](O)[C@@H]1O)c1ccoc1 (some centres unmarked)	Trypanosoma cruzi glucokinase (TcGlcK) (Trypanosoma cruzi (strain CL Brener))	56%
O=C(NC1C(O)OC(CO)C(O)C1O)OCc1ccccc1 (centres unmarked) [CBZ-GlcN, carboxybenzyl glucosamine, reference compound]	Trypanosoma cruzi glucokinase (TcGlcK) (Trypanosoma cruzi (strain CL Brener))	92%
O=C(N[C@H]1C(O)O[C@H](CO)[C@H](O)[C@@H]1O)c1ccccc1 (some centres unmarked)	Trypanosoma cruzi glucokinase (TcGlcK) (Trypanosoma cruzi (strain CL Brener))	59%
O=C(N[C@@H]1C(O)O[C@H](CO)[C@@H](O)[C@@H]1O)c1cc2ccccc2o1 (some centres unmarked)	Trypanosoma cruzi glucokinase (TcGlcK) (Trypanosoma cruzi (strain CL Brener))	10%
O=C(N[C@H]1C(O)O[C@H](CO)[C@H](O)[C@@H]1O)c1cc2ccccc2o1 (some centres unmarked)	Trypanosoma cruzi glucokinase (TcGlcK) (Trypanosoma cruzi (strain CL Brener))	39%
